- Tested on: MDA-MB-468 breast
- experimentSummary: NCI tumour cell line growth inhibition, 48 h
reportedEndpoint: GI50

COc1cc(F)c(F)c(Nc2ccc(I)cc2F)c1NS(=O)(=O)C1(C[C@H](O)CO)CC1 > 5.95 µM
O=S(=O)(NCCNc1nccc(-c2c(-c3ccc(F)c(O)c3)nc3sccn23)n1)c1ccc(F)cc1 2.97 µM
COc1ccc2c(=O)cc(-c3ccccc3)[nH]c2c1 0.887 µM
O=C1Nc2cc(Cl)ccc2/C1=C/c1cccc(OCc2ccc(Br)cc2F)c1 2.43 µM
COc1ccc(/C=C/C(=O)/C=C/c2cc3ccccc3[nH]c2=O)cc1 2.32 µM

# query: GI50 of entry "O=C(NOC[C@H](O)CO)c1ccc(F)c(F)c1Nc1ccc(I)cc1F"
13.9 µM

Quick check: GI50 of "O=C1/C(=C/c2cccc(Br)c2)COc2ccc(O)cc21" ?
1.75 µM

Which GI50 value belongs to "COc1cccc(/C(C#N)=C/c2nc3c(N4CCOCC4)nc(Cl)nc3n2C)c1" ?
0.497 µM

* * *

- Test system: MDA-MB-468 breast
- experimentSummary: NCI tumour cell line growth inhibition, 48 h
reportedEndpoint: TGI (µM)
Numeric answer only, unit µM assumed.

molecule	reportedEndpoint	resultUnit	val
CCCCCCCCCCCCCCCCCC1=NC(C)(C)CN1CC(C)O (configuration not stated)	TGI	µM	24.4
Cc1ncc(C(=O)Nc2ccc(CN3CCN(C)CC3)c(C(F)(F)F)c2)cc1C#Cc1cnc2cccnn12	TGI	µM	3.41

# lookup: TGI of "C[C@@H]1C[C@H](C)CN(S(=O)(=O)c2ccc3c(NO)c4ccc(S(=O)(=O)N5C[C@H](C)C[C@H](C)C5)cc4c(N=O)c3c2)C1"
0.312

Given the entry Cc1nc(N)nc2c1CCC(O)S2 (configuration not stated) , report its measured TGI.
13

Bench note: what TGI did "O=C1/C(=C/c2cccc(Br)c2)COc2ccc(O)cc21" show?
4.33

Quick one: TGI for "COc1cc2nc(SCc3cc(OC)c(OC)c(OC)c3)n(Cc3ccccc3)c(=O)c2cc1OC" ?
1.91

Requested read-out: TGI. Entry: O=C(/C=C/c1ccccc1)C(Br)C(Br)c1ccccc1 (configuration not stated)
3.48

Data request, read-out TGI, for "COc1ccc(-c2cs/c(=N\N=C\c3ccc(O)cc3O)n2/N=C/c2ccc(O)cc2O)cc1"
5.68

So what does the record say about TGI for "COc1ccc(NC(=O)CSc2nnc(-c3ccc(-c4nc5ccccc5[nH]4)cc3)o2)cc1" ?
6.44

* * *

Reported TGI is given for each of the following molecules.
- Tested on: MDA-MB-468 breast
- experimentSummary: NCI tumour cell line growth inhibition, 48 h

Would you please look over these solved cases?
CCOC(=O)Nc1nc2ccc(OC)cc2s1 > 100 µM
COc1ccc2c(=O)cc(-c3ccccc3)[nH]c2c1 > 100 µM

Quick one: TGI of "CN(Cc1cnc2nc(N)nc(N)c2n1)c1ccc(C(=O)N[C@@H](CCC(=O)O)C(=O)O)cc1" ?
> 250 µM

meta.source: PubChem BioAssay (NCI)
